# system.name: T1, human MSLN protein endogenously expressed on OVCAR3 tumor cells (human, UniProt Q13421 296-598)
# T1 construct: whole, on cells; Endogenous target on OVCAR3 cells; kept apart from the recombinant full-length construct; also called mesothelin
# measurement.protocol: FACS on OVCAR3 cells;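 note: flow cytometry binding of test antibodies to cells, 2 h incubation on ice, readout as cell mean fluorescence intensity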
Recorded EC50, one value per entry.

binder: S009-F7.67.12 (antibody, human IgG1, kappa, V domains shown, human-murine chimeric antibody, human IgG1/kappa constant regions) VH: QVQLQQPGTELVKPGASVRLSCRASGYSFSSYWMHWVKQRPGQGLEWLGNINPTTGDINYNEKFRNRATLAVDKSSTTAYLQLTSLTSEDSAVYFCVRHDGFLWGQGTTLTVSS VL: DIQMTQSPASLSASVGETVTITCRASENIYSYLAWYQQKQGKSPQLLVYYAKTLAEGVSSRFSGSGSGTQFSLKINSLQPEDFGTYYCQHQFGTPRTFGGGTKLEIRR
EC50: 0.37 nM
--
binder: S009-F7.53.2 (antibody, human IgG1, kappa, V domains shown, human-murine chimeric antibody, human IgG1/kappa constant regions) VH: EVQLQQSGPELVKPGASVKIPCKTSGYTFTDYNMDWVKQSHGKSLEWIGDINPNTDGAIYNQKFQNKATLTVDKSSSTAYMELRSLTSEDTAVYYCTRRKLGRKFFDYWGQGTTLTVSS VL: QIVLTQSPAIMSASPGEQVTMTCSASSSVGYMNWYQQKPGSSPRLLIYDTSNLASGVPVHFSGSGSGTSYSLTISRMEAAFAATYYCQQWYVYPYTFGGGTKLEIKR
EC50: 1.09 nM
--
binder: S009-F7.48.1 (antibody, human IgG1, kappa, V domains shown, human-murine chimeric antibody, human IgG1/kappa constant regions) VH: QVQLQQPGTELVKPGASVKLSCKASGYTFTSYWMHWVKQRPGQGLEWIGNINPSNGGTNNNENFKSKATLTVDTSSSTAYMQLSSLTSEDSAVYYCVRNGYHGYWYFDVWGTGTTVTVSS VL: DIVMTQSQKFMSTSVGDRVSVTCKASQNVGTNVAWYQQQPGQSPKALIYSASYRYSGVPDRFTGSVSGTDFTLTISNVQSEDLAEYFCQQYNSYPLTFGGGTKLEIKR
EC50: ~4 nM
